Test system: muscle progenitors derived from DMD hiPSC
protocol details: Dose response assay of combination treatments with Givinostat or Prednisolone: total myotube area
Format: cell-based, human
condition context: Homo sapiens, Myotube; compound alone, DRC 4.5 nM to 10 µM, DMD hMPs (figure 6); read-out: potency (EC50) on myotube surface
measurement type: EC50

• CCN(CC)Cc1ccc2cc(COC(=O)Nc3ccc(C(=O)NO)cc3)ccc2c1 [Givinostat, reference compound] = ≤ 0.17 µM
• C[C@]12C=CC(=O)C=C1CC[C@@H]1[C@@H]2[C@@H](O)C[C@@]2(C)[C@H]1CC[C@]2(O)C(=O)CO [Prednisolone, reference compound] = ≤ 0.17 µM

Data credit: patent EP4029501A1
